Measured values drawn from the supplement of paper PMC6555819 for this set.

# System: RARg:RXRa (NR concentration 270 nM, RXRa partner concentration 90 nM)
# assay_procedure: PBM binding z-score (relative to random genomic background probes); higher = stronger binding; sequences stand for … in GC…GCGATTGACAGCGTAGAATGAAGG
Label FALSE if PBM binding z-score falls below 3; label TRUE in every other case.

> print(dat)
                                   seq                          target.or.system    cat
 1  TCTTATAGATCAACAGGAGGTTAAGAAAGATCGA  RARg:RXRa (NR concentration 270 nM, RXRa partner concentration 90 nM)  FALSE
 2  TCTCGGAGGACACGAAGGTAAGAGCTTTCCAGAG  RARg:RXRa (NR concentration 270 nM, RXRa partner concentration 90 nM)  FALSE
 3  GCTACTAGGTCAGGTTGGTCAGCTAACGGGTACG  RARg:RXRa (NR concentration 270 nM, RXRa partner concentration 90 nM)  FALSE
 4  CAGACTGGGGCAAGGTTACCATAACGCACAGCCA  RARg:RXRa (NR concentration 270 nM, RXRa partner concentration 90 nM)  FALSE
 5  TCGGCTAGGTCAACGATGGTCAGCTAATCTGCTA  RARg:RXRa (NR concentration 270 nM, RXRa partner concentration 90 nM)   TRUE
 6  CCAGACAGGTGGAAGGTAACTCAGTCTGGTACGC  RARg:RXRa (NR concentration 270 nM, RXRa partner concentration 90 nM)  FALSE
 7  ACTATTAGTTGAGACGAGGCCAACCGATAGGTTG  RARg:RXRa (NR concentration 270 nM, RXRa partner concentration 90 nM)  FALSE
 8  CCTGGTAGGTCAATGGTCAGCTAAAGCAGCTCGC  RARg:RXRa (NR concentration 270 nM, RXRa partner concentration 90 nM)   TRUE
 9  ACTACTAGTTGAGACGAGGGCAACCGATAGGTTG  RARg:RXRa (NR concentration 270 nM, RXRa partner concentration 90 nM)  FALSE
10  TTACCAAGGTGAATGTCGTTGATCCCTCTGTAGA  RARg:RXRa (NR concentration 270 nM, RXRa partner concentration 90 nM)  FALSE
11  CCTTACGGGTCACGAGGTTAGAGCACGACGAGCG  RARg:RXRa (NR concentration 270 nM, RXRa partner concentration 90 nM)   TRUE
12  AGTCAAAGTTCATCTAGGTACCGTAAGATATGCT  RARg:RXRa (NR concentration 270 nM, RXRa partner concentration 90 nM)   TRUE
13  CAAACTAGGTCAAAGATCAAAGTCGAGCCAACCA  RARg:RXRa (NR concentration 270 nM, RXRa partner concentration 90 nM)   TRUE
14  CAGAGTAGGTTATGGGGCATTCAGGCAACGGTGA  RARg:RXRa (NR concentration 270 nM, RXRa partner concentration 90 nM)  FALSE
15  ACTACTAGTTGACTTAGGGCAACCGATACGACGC  RARg:RXRa (NR concentration 270 nM, RXRa partner concentration 90 nM)  FALSE
16  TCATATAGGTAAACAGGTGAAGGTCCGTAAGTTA  RARg:RXRa (NR concentration 270 nM, RXRa partner concentration 90 nM)  FALSE
17  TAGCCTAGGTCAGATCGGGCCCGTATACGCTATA  RARg:RXRa (NR concentration 270 nM, RXRa partner concentration 90 nM)  FALSE
18  AGTCACAGTTCATCTAGGTAACGTAAGATATGCT  RARg:RXRa (NR concentration 270 nM, RXRa partner concentration 90 nM)  FALSE
19  CGTCCAAGGTCAGAGGGGTCAGTGAATGCCGAGT  RARg:RXRa (NR concentration 270 nM, RXRa partner concentration 90 nM)   TRUE
